# Tested on: XIP peptide (Xip251-270)
# assay notes: small-molecule binders of XIP peptide, primary screen, biochemical, small-molecule microarray, fluorescence 635/667 nm, 0.5 µg/mL protein (AID 1183)
# experimental conditions: small-molecule microarray binding, fluorescence 635 nm; higher = more signal
Threshold check on composite z-score: at or above 0.3 gives Yes, strictly below gives No.

Field: example entries. Status: answers known.
O=C1OCC=C[C@H]2OC34C=CCN(CCN5CCOCC5)C(=O)[C@H]3N(CCCO)C(=O)[C@@H]4[C@@H]12 (stereo partly drawn) : No
C=CCOC(=O)[C@H]1[C@@H]2C(=O)O[C@@H](c3ccccc3)[C@@H](c3ccccc3)N2[C@@H](c2ccc(OCCOC(=O)[C@H]3C[C@H]4C(=O)N5CCC[C@H]5C(=O)N4[C@H]3c3ccc(O)cc3)cc2)[C@]12C(=O)Nc1ccc(I)cc12 : Yes
CC(CO)N1C(=O)[C@@H]2C3C(=O)OCCC/C=C\[C@H]3OC23C=CCN(c2ccc4ccccc4c2)C(=O)[C@@H]13 (stereo partly drawn) : No

Form field: composite z-score at least 0.3? Entry: C=CCOC(=O)[C@H]1[C@@H]2C(=O)O[C@@H](c3ccccc3)[C@@H](c3ccccc3)N2[C@@H](c2ccc(OCCOC(=O)[C@@H]3C[C@@H]4C(=O)N[C@@H](CCCC[N+](C)(C)C)C(=O)N4[C@@H]3c3ccc(O)cc3)cc2)[C@]12C(=O)Nc1ccccc12
Yes

Form field: composite z-score at least 0.3? Entry: COc1ccc(CCN2C(=O)[C@@]3(c4ccc([N+](=O)[O-])cc4)CC(=O)N(C4CCCCC4)[C@@H]3c3ccc(CO)cc32)cc1
Yes

Form field: composite z-score at least 0.3? Entry: COC(=O)C(CC#Cc1ccc2c(c1)[C@]1(C(=O)N2)[C@H](c2ccc(O)cc2)N2[C@H](c3ccccc3)[C@H](c3ccccc3)OC(=O)[C@H]2[C@@H]1C(=O)Nc1nc2ccccc2s1)C(=O)OC
Yes

Form field: composite z-score at least 0.3? Entry: CCOC(=O)[C@H]1CC=C2CC1C(=O)N1CCC[C@@H]1[C@@H]2O[Si](C)(C)C(C)(C)C (stereo partly drawn)
No

Form field: composite z-score at least 0.3? Entry: CC(C)OC(=O)C=C1C[C@@H](c2ccccc2C(F)(F)F)O[C@@H](c2ccccc2C(F)(F)F)O1
No

Form field: composite z-score at least 0.3? Entry: O=C1O[C@H](c2ccccc2)[C@H](c2ccccc2)N2[C@H]1[C@@H](C(=O)Nc1nc3ccccc3s1)[C@]1(C(=O)Nc3ccc(C#CC4(O)CCCCCC4)cc31)[C@H]2c1ccc(OCCO)cc1
Yes

* * *

# assay notes: E. coli acrAB mutant growth effects, primary screen, E. coli filamentation inducers, strain DRC39, OD650, 24 h (AID 1178);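 note: growth measured as culture turbidity by optical density at 650 nm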
# experimental conditions: higher = more signal, called active from +8 up or from −8 down
experimental readout: z-score
Form field (numeric): enter value without unit.

Below, each entry is followed by its recorded z-score result.
Cc1ccc(S[C@]2(C(=O)NC(C)C)CC(=O)N(Cc3ccccc3Cl)[C@@H]2c2ccc(CO)cc2I)cc1 : 0.0051
O=C1OCCC/C=C\[C@H]2OC34C=CCN(c5ccc6ccccc6c5)C(=O)[C@H]3N(CCCCCCO)C(=O)[C@@H]4C12 (some centres undefined) : 0.374
CC(C)C[C@@H]1NC(=O)[C@H]2C[C@@H](C(=O)NCCCCCCN(C)C)[C@@H](c3ccc(O)cc3)N2C1=O : 0.0306
CC(C)N1C(=O)[C@@]2(Cc3ccccc31)c1ccccc1C(=O)N(C1CCCCC1)[C@H]2c1ccc(CO)cc1 : 0.589
COc1ccc([Si](C)(C)[C@@H]2[C@@H](CC(=O)N3Cc4ccccc4C[C@H]3CO)O[C@]3(C(=O)N(C)c4c(Br)cc(C)cc43)[C@H]2C)cc1 : 1.34

Recall and state the measured z-score for COCCOC(=O)N1C(=O)[C@@]2(c3cc(C#CC4=CCCCC4)ccc31)[C@H](c1ccc(O)cc1)N1[C@H](c3ccccc3)[C@H](c3ccccc3)OC(=O)[C@H]1[C@@H]2C(N)=O .
0.066

Recall and state the measured z-score for C=CCOC(=O)[C@@H]1[C@H]2C(=O)O[C@H](c3ccccc3)[C@H](c3ccccc3)N2[C@H](c2ccc(OCCOC(=O)[C@@H]3C[C@@H]4C(=O)N[C@@H](Cc5ccccc5)C(=O)N4[C@@H]3c3ccc(O)cc3)cc2)[C@@]12C(=O)Nc1ccc(I)cc12 .
-0.0033

Recall and state the measured z-score for COC(=O)[C@@]1(Cc2ccc(F)cc2)[C@H]2c3cc(C(=O)N4CCCC4)n(Cc4ccc(C)o4)c3C[C@H]2CN1C(=O)c1ccccc1 .
-0.201

* * *

# assay notes: small-molecule binders of probe aLefty1, primary screen, biochemical, small-molecule microarray, 635/667 nm fluorescence (AID 1153);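 note: score merges spot fluorescence with signal-to-noise ratio from the scanned slide images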
# experimental conditions: higher = more signal
Threshold check on composite z-score: at or above 0.2 gives 1, strictly below gives 0.

Field: example entries. Status: answers known.
CC(C)c1ccc(NN2C(C(O)C(c3ccccc3)c3ccccc3)C=CC3C(=O)N(c4ccccc4)C(=O)C32)cc1 (centres undefined) : 1
C=CCOC(=O)[C@@H]1[C@H]2C(=O)O[C@H](c3ccccc3)[C@H](c3ccccc3)N2[C@H](c2ccc(OCCOC(=O)[C@@H]3C[C@@H]4C(=O)N[C@@H](CCCCN(C)C)C(=O)N4[C@@H]3c3ccc(O)cc3)cc2)[C@@]12C(=O)Nc1ccc(I)cc12 : 0
Cc1ccc(C(C)CC(O)C2C=CC3C(=O)N(c4ccccc4)C(=O)C3N2Nc2ccc([N+](=O)[O-])cc2)o1 (centres undefined) : 1
CCC(CC)C(O)C1C=CC2C(=O)N(C)C(=O)C2N1Nc1ccccc1 (centres undefined) : 0

Turning now to a further compound:
Form field: composite z-score at least 0.2? Entry: C=C(CCCC)C(=O)CC[C@H](OC(C)=O)c1cccc(OCCO)c1
0

* * *

# assay notes: small-molecule microarray binders of probe aShh, primary screen, biochemical, biotinylated probe, 635/667 nm fluorescence (AID 1114);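 note: probe is biotin-labelled aShh protein from a stem cell growth factor screen; measures binding of labelled protein to compounds printed on the slide; score merges feature fluorescence at 667 nm with signal-to-noise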
# experimental conditions: higher = more signal
Binning of composite z-score into classes: I (below -0.05), II (-0.05 to below 0.1), III (0.1 or more)

CCCCCCC#C[Si](O[C@H](c1ccccc1)c1cn([C@H](CO)Cc2ccccc2)nn1)(C(C)C)C(C)C : III
C=C(COC)/C(=C/C[C@H](OC(=O)c1ccncc1)c1ccc(OCCO)cc1)c1cnc2ccccc2c1 : III
COC(=O)[C@@]1(Cc2ccc(F)cc2)[C@H]2c3cc(C(=O)N(C)C)n(CC4CC4)c3C[C@H]2CN1C(=O)c1ccccc1 : III

Turning now to a further compound:
Kindly identify the class of O=C1OCCC/C=C\[C@H]2OC34C=CCN(c5ccc6ccccc6c5)C(=O)[C@H]3N(CCCCCCO)C(=O)[C@@H]4C12 (some centres undefined) .
I

* * *

# assay notes: adipocyte viability effects, profiling panel, cell-based, 3T3-L1 adipocytes, calcein-AM fluorescence, 48 h, basal (AID 1163)
# experimental conditions: 3T3-L1 adipocytes viability, higher = more signal
Binary call on z-score with cut-off 0.3: strictly below means fulfilled, and equality or higher means not fulfilled.

Field: example entries. Status: answers known.
CC(CO)N1C(=O)[C@@H]2C3C(=O)OCCC/C=C\[C@H]3OC23C=CCN(c2ccc4ccccc4c2)C(=O)[C@@H]13 (stereo partly specified) : fulfilled
COCCOC(=O)N1C(=O)[C@@]2(c3cc(C#CCCO)ccc31)[C@H](c1ccc(OCCO)cc1)N1[C@H](c3ccccc3)[C@H](c3ccccc3)OC(=O)[C@H]1[C@@H]2C(=O)N1CCN(c2ncccn2)CC1 : not fulfilled
O=C1OCCC/C=C\[C@H]2OC34C=CCN(Cn5nnc6ccccc65)C(=O)[C@H]3N(CCO)C(=O)[C@@H]4C12 (stereo partly specified) : not fulfilled
CCCN1C(=O)[C@]2(CCS(=O)(=O)c3ccccc3)N=C(c3ccc(OCCCO)cc3)O[C@@H]2c2ccccc21 : not fulfilled
COc1ccc(C(=O)Nc2ccc(CN3C(=O)[C@@]4(O[C@@H](CC(=O)N5CCC[C@H]5CO)[C@H]([Si](C)(C)c5ccc(OC)cc5)[C@H]4C)c4ccccc43)cc2)cc1 : fulfilled

Turning now to a further compound:
z-score under 0.3? Item: COC(=O)[C@@]1(Cc2ccccc2)[C@H]2c3cc(C(=O)N(C)C)n(CCSCCO)c3C[C@H]2CN1C(=O)c1ccccc1
fulfilled

* * *

# system under test: Streptavidin (Streptomyces avidinii)
# assay notes: streptavidin binders on small-molecule microarray, primary screen, artefact control for SMM compound annotation, biophysical, 635/667 nm fluorescence (AID 1147);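 note: signal reflects streptavidin binding to arrayed compounds as a control protein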
# experimental conditions: streptavidin binding, higher = more signal
experimental readout: composite z-score
Form field (numeric): enter value without unit.

CC(C)C(CO)N1C(=O)[C@@H]2[C@H]3C(=O)OCC=C[C@H]3OC23C=CCN(C(C)C)C(=O)[C@@H]13 (some centres undefined) : -0.629
CC(C)c1ccc(NN2C(C(O)C(c3ccccc3)c3ccccc3)C=CC3C(=O)N(c4ccccc4)C(=O)C32)cc1 (centres undefined) : 1.3
C=C(COC)/C(=C/C[C@H](OC(=O)c1ccncc1)c1ccc(OCCO)cc1)c1cnc2ccccc2c1 : 1.73
CCOC(=O)C1=CCC(c2ccc(C)cc2)N(S(=O)(=O)c2ccc(C)cc2)C1 (centres undefined) : 0.841

Recall and state the measured composite z-score for CCCC[C@H]1OB(O)C[C@H]2C1=C(COc1ccccc1)C[C@H]1C(=O)N(C)C(=O)[C@H]12 .
-0.385

Recall and state the measured composite z-score for COC(=O)[C@@]1(Cc2ccccc2)[C@H]2c3cc(C(=O)N(C)C)n(CCSCCO)c3C[C@H]2CN1C(=O)c1ccccc1 .
0.357

Recall and state the measured composite z-score for OC([C@@H]1CC(c2ccccc2)=NO1)[C@H]1CC(c2ccccc2)=NO1 (some centres undefined) .
0.133

Recall and state the measured composite z-score for CS(=O)(=O)CCOC(=O)C1=CC(CCCO)=CC(c2ccc(CN3CCCC3)cc2)N(Cc2cc3c(cc2Br)OCO3)C=C1C(=O)OCCS(C)(=O)=O (centres undefined) .
1.5

Recall and state the measured composite z-score for CCOC(=O)C[C@H]1[C@H](OC(=O)Cc2ccc3c(c2)OCO3)[C@@H](NC(=O)c2ccc(-c3ccccc3)cc2)c2cc(OCCCO)ccc2N1C(=O)c1ccc2ccccc2n1 .
1.41

Recall and state the measured composite z-score for COCCCN1C(=O)[C@@]2(Cc3ccccc31)c1ccccc1C(=O)N(Cc1ccccc1C(F)(F)F)[C@H]2c1ccc(CO)cc1 .
0.147

Recall and state the measured composite z-score for C=CCNC(=O)[C@H]1[C@@H]2C(=O)O[C@@H](c3ccccc3)[C@@H](c3ccccc3)N2[C@@H](c2ccc(OCCO)cc2)[C@]12C(=O)Nc1ccc(C#CC3=CCCCC3)cc12 .
0.376

Recall and state the measured composite z-score for O=C1c2ccccc2[C@](Cc2ccccc2I)(C(=O)NC2CC2)[C@H](c2ccc(CO)cc2)N1Cc1ccccc1 .
-0.248

Recall and state the measured composite z-score for C=CCNC(=O)[C@@H]1[C@H]2C(=O)O[C@H](c3ccccc3)[C@H](c3ccccc3)N2[C@H](c2ccc(OCCO)cc2)[C@@]12C(=O)Nc1ccc(C#Cc3ccc(OC)cc3)cc12 .
1.01

Recall and state the measured composite z-score for COCCOC(=O)N1C(=O)[C@@]2(c3cc(C#CCCO)ccc31)[C@H](C(=O)N1CCN(c3ncccn3)CC1)[C@H]1C(=O)O[C@H](c3ccccc3)[C@H](c3ccccc3)N1[C@@H]2c1ccccc1OCCO .
1.08
